All values here come from patent US20240254209A1.

Molecular target: T1, peanut allergen Ara h 3 (peanut (Arachis hypogaea))
T1 construct: also called F424
Assay: ImmunoCAP, hybridoma supernatant
Procedure: Verification and validation of IgE mAbs peanut allergen specificity. Following the unbiased generation of IgE secreting human hybridomas from peanut allergic subject PBMCs, peanut protein binding and peanut allergen protein specificity was determined. […] Using the available ImmunoCAP components (purified allergen proteins: Ara h 1, F422; Ara h 2, F423; Ara h 3, F424; Ara h 8 F352; Ara h 9 F427), the exact allergen specificity was determined for those which bound Ara h 1, 2, and 3. […]
ATTRIBUTE MEASURED: ImmunoCAP kUA/L
The answer consists of two parts: a number and, after it, its unit.

# binder human IgE mAb 26A5 (antibody, V domains shown, human IgE from hybridoma) VH: QVQLVQSGSELRKPGASVKVSCKASGYTFTKYGMNWVRQAPGQGLEWMGWINTNTAKPTYAQDFTGRFVFSLDTSVNTAYLEISGLKAEDTAVYYCATDGSEGSWGQGTLVTVSS VL: DIQMTQSPSTLSASVGDRVTITCRASQSIGTWLAWHQQKPGTAPKVLIYKASNLKSGVPSRFSGSGSGTDFTLTISSLQPDDVATYYCQQYNTYSGTFGQGTRVEIK ; its ImmunoCAP kUA/L = 0.25 kUA/L

Note: attention shifts to another entry.
# binder human IgE mAb 3B7 (antibody, V domains shown, human IgE from hybridoma) VH: QVQLVQSGSELKKPGASMKVSCKASGYTFTNYAMNWVRQAPGQGLEWMGWINTNTGKPTYAQGFTGRFVFSLDTSVSMAYLQISSLEAGDTAVYFCARGESLAALGSFAYWGQGTLVTVSS VL: DIQMTQSPSSLSASVGDRVTITCRASQSINSYLAWYQQKPGKAPNLLIYAASNLQSGVPSRFSGSGSGTDFTLTISSLQPEDFATYYCQQSSSTFWTFGQGTKVEIK ; its ImmunoCAP kUA/L = 1.15 kUA/L
